method.notes: protein stability index of a GFP-peptide fusion (yeast GPS) (PSI 1-4); higher = more stable; sorted into four equal gates, so the index is relative within each strain
condition.notes: pdr5∆
Assign True whenever protein stability index does not fall below 3; assign False whenever it does.

Data request: Check this sequence for protein stability index at or above 3: NTYKRLVIGIFKRDLLR [YJL039C/NUP192]
Data returned: False

Data request: Check this sequence for protein stability index at or above 3: KGKKGQKKRVVDPFTRK [RPS1A]
Data returned: True

Data request: Check this sequence for protein stability index at or above 3: KLIIHRKNDNANDHDES [SMC3]
Data returned: False

Data request: Check this sequence for protein stability index at or above 3: INELVLENFKSYAGKQV [SMC4]
Data returned: False

Data request: Check this sequence for protein stability index at or above 3: DAVEGVSECIILGQTMS [RPO31]
Data returned: False

====

method.notes: protein stability index of a GFP-peptide fusion (yeast GPS) (PSI 1-4); higher = more stable; sorted into four equal gates, so the index is relative within each strain
condition.notes: san1∆
measured.parameter: protein stability index
Give only the figure.

Data request: Note down protein stability index recorded for KSSGSSMATPTHSDSHE [ROX3]
Data returned: 2.82

Data request: Note down protein stability index recorded for QDSILIIYPRSQTTLVQ [ARP9]
Data returned: 2.23

Data request: Note down protein stability index recorded for MRSTSILTEHLGYPPIS [MTW1]
Data returned: 2.87

Data request: Note down protein stability index recorded for EQILQWVTEVLGNDIPH [BRR2]
Data returned: 2.88

Data request: Note down protein stability index recorded for QQQQQHQQQQQQQQQQQ [SNF5]
Data returned: 2.94

Data request: Note down protein stability index recorded for KPGIPRGNTKIHSMNEN [SIR3]
Data returned: 3.32

Data request: Note down protein stability index recorded for EEAAGTKMFEDRREKAE [SMC2]
Data returned: 3.26

Data request: Note down protein stability index recorded for STRVEFEKLYSDLMKFL [FAS2]
Data returned: 3.26

Data request: Note down protein stability index recorded for LPRYQELTKEEAMYKLQ [SMC3]
Data returned: 3.43

Data request: Note down protein stability index recorded for WDLLQSGSQNISEFDSF [RPN12]
Data returned: 3.05

Data request: Note down protein stability index recorded for YPREEEEDYNEFNSIDR [PRP8]
Data returned: 3.1

Data request: Note down protein stability index recorded for ENDQQDNEEWMNDVINT [LIN1]
Data returned: 3.19

Data request: Note down protein stability index recorded for EGQADIDMESDVEDDDK [POP7]
Data returned: 3.3

Data request: Note down protein stability index recorded for NTNNNNTNNNNNPANNT [SWI1]
Data returned: 3.41

Data request: Note down protein stability index recorded for KIKHGSVTEIPLKLSGE [YMR129W/POM152]
Data returned: 2.58

Data request: Note down protein stability index recorded for FKVRTNLNDKFGIYILT [MED1]
Data returned: 1.98

Data request: Note down protein stability index recorded for MKVEIDSFSGAKIYPGR [RPL24A]
Data returned: 3.25

Data request: Note down protein stability index recorded for STFTKHLIKCFFKITLQ [ITC1]
Data returned: 1.51

Data request: Note down protein stability index recorded for NRMQISPDQMRNLQMGL [GRR1]
Data returned: 3.27

Data request: Note down protein stability index recorded for KDSTAGKKVFETQYFWK [YJR042W/NUP85]
Data returned: 3.03

Data request: Note down protein stability index recorded for NAAVAGVANTDTAGEES [SWI3]
Data returned: 3

Data request: Note down protein stability index recorded for SKTHKTVSRAYGGSRCA [RPL34A]
Data returned: 2.82

Data request: Note down protein stability index recorded for TSALSELSGLISSAKLD [QCR2]
Data returned: 1.7

Data request: Note down protein stability index recorded for SFLDRKRAKEFITTLLK [SIN4]
Data returned: 2.21

Data request: Note down protein stability index recorded for QELISKAFTNWNKRDFM [ISW2]
Data returned: 1.59

Data request: Note down protein stability index recorded for QKLPQYIIQGSNTNDNI [RGR1]
Data returned: 2.48

Data request: Note down protein stability index recorded for EYKVITSLQGTYEAIEI [YMR129W/POM152]
Data returned: 2.89

Data request: Note down protein stability index recorded for GTPLFTFGKKADVTSNI [YOR098C/NUP1]
Data returned: 1.51

Data request: Note down protein stability index recorded for MLLLNDSVENSSNILED [SRB8]
Data returned: 2.58

Data request: Note down protein stability index recorded for INIKYLRLDGHTKSDER [SNF2]
Data returned: 2.29

Data request: Note down protein stability index recorded for SAASKKKKNKNKGKKKR [SRP21]
Data returned: 3.11

Data request: Note down protein stability index recorded for LPTPTPTEMEPDLDTEC [SWI1]
Data returned: 2.77

Data request: Note down protein stability index recorded for KAVKLRKSYKNQIADLS [ROX3]
Data returned: 2.77

Data request: Note down protein stability index recorded for PMETLLSGLSADKPFTR [YML031W/NDC1]
Data returned: 2.94

Data request: Note down protein stability index recorded for GGESAYFFQLQIRSADE [RPC11]
Data returned: 2.71

Data request: Note down protein stability index recorded for LDIPNVSLVVNFQISKK [PRP28]
Data returned: 2.35

Data request: Note down protein stability index recorded for ATFTSIELTSYESIATY [RPN7]
Data returned: 1.77

Data request: Note down protein stability index recorded for TAFKATVFFLIRVAETR [YJL039C/NUP192]
Data returned: 1.12

Data request: Note down protein stability index recorded for QREDKLKSHYYQTCKNS [SMC2]
Data returned: 1.63

Data request: Note down protein stability index recorded for SMILGVAASIIPFPDHN [RPB2]
Data returned: 2.27

Data request: Note down protein stability index recorded for GPSVESYELRNTTTYKS [SNF5]
Data returned: 2.41

Data request: Note down protein stability index recorded for NRTKSTTIKNIDILNRT [SMC4]
Data returned: 2.38

Data request: Note down protein stability index recorded for VFEISENNSDSNSNNNG [SWI1]
Data returned: 3.15

Data request: Note down protein stability index recorded for FTNPSIVKVFHGAFMDI [RRP6]
Data returned: 1.63

Data request: Note down protein stability index recorded for STSENKISEGSAKPTFS [YOR098C/NUP1]
Data returned: 2.8

Data request: Note down protein stability index recorded for STKKIQVATKYASLKLP [YMR129W/POM152]
Data returned: 1.55

Data request: Note down protein stability index recorded for PRKLVLSSGENRYAFSQ [SMC4]
Data returned: 1.72

Data request: Note down protein stability index recorded for DRSKLKKGVRVTLDITT [RPT4]
Data returned: 2.4

Data request: Note down protein stability index recorded for LLGIFDDIFIPQNMLFE [RPC25]
Data returned: 2.52

Data request: Note down protein stability index recorded for NFNSVNDANITSNKEGF [SSN2]
Data returned: 3.32

Data request: Note down protein stability index recorded for RRLDALVEKVYARFKND [ITC1]
Data returned: 2.69

Data request: Note down protein stability index recorded for TNSHLPAGKQVEISLVN [FAS1]
Data returned: 3.36

Data request: Note down protein stability index recorded for SSDDRVKVLAATNRVDV [RPT5]
Data returned: 2.88

Data request: Note down protein stability index recorded for SPKPYAVKYGLNHVVSL [RPL8B]
Data returned: 2.09

Data request: Note down protein stability index recorded for FKHGPMSLINDAMVTRT [SMD2]
Data returned: 2.76

Data request: Note down protein stability index recorded for SNDLDKFFQKKIHLYEK [YGL172W/NUP49]
Data returned: 1.96

Data request: Note down protein stability index recorded for ENDEEFYKNKYSSKPYK [RPN2]
Data returned: 2.36

Data request: Note down protein stability index recorded for ITDKGTVDGRLYQLFKT [YJL039C/NUP192]
Data returned: 3.3

Data request: Note down protein stability index recorded for YEQHIENIEPLDPINLP [PRP8]
Data returned: 2.5

Data request: Note down protein stability index recorded for PYAIVKGKARLGTLVNQ [RPL8A]
Data returned: 2.74

====

method.notes: protein stability index of a GFP-peptide fusion (yeast GPS) (PSI 1-4); higher = more stable; sorted into four equal gates, so the index is relative within each strain
condition.notes: doa10∆
measured.parameter: protein stability index
Give only the figure.

Data request: Note down protein stability index recorded for LEMSTEDFVKLAPARVR [RPS15]
Data returned: 2.83

Data request: Note down protein stability index recorded for QQTEHETEIKDLTQLLE [SMC4]
Data returned: 3.44

Data request: Note down protein stability index recorded for AQGVAVQLKRQPAQPRE [RPL21A]
Data returned: 1.66

Data request: Note down protein stability index recorded for KEAAAVAEGKSKQDASP [RPL8A]
Data returned: 3.22

Data request: Note down protein stability index recorded for LVSANNDNNSPHTPVTR [YLR018C/POM34]
Data returned: 2.63

Data request: Note down protein stability index recorded for SVGNLEVVKSLYDRPLK [NAS6]
Data returned: 3.29

Data request: Note down protein stability index recorded for SSATIVLCLTRSSYMLE [YCG1]
Data returned: 1.76

Data request: Note down protein stability index recorded for ARDAPTKISTLAVKVHG [QCR2]
Data returned: 1.4

Data request: Note down protein stability index recorded for YSNSHQMAVHIATDGGR [RET1]
Data returned: 1.98

Data request: Note down protein stability index recorded for GARPGRVARRNAARKAE [RPS9A]
Data returned: 3.3

Data request: Note down protein stability index recorded for SANERLFGNRPSMMAPL [YML031W/NDC1]
Data returned: 2.96

Data request: Note down protein stability index recorded for VDSWDREFLKVDQEMLY [SKP1]
Data returned: 3.43

Data request: Note down protein stability index recorded for EYMVQYIDEMYNHNDGG [RRI1]
Data returned: 3.03

Data request: Note down protein stability index recorded for SHLVVPYCPIASITGTG [YMR129W/POM152]
Data returned: 1.36
